The values you see were collected from patent US4734282A.

# Test system: vitamin K-dependent carboxylation
# assay explanation: in vitro rat hepatic microsomal vitamin K-dependent carboxylation of endogenous substrate, inhibition by vitamin K antagonists
# Type: biochemical
# particulars: warfarin; logistic fit with IO as third parameter; read-out: IC50 (mean ± S.D.)
value kind: IC50

[Q] Retrieve IC50 on vitamin K-dependent carboxylation; query CC(=O)CC(c1ccccc1)c1c(O)c2ccccc2oc1=O (stereo not shown)
[A] 6.63 mM

###

# Tested on: vitamin K-dependent carboxylation
# assay explanation: in vitro rat hepatic microsomal vitamin K-dependent carboxylation of endogenous substrate, inhibition by vitamin K antagonists
# Assay type: biochemical
# particulars: percent inhibition of vitamin K-dependent carboxylation vs concentration, logistic fit per animal, vitamin K1 20 μg/ml, 27°; read-out: IC50 (mean ± S.D.)
# Protocol: The procedures for preparation of vitamin K-dependent carboxylase and assay of carboxylation were similar to those described in other laboratories (J. Biol. Chem. 251, 2770-2776; Biochim. Biophys. Acta 499, 181-193). Each animal was studied under both control and inhibitory conditions. […] Microsomal suspension protein concentration was determined by the method of Bradford (Anal. Biochem. 72, 248-254) as described for Bio-Rad reagent and adjusted to approximately 15 mg/ml in buffer II. […]
value kind: IC50 (µM)
Numbers only, in µM.

{"columns": ["molecule", "unit descriptor", "IC50"],
 "data": [
  ["C/C(=C\\CC1=C(Cl)C(=O)c2ccccc2C1=O)CCC[C@H](C)CCC[C@H](C)CCCC(C)C", "µM", 285],
  ["O=C1C(Cl)=CC(=Nc2ccc(O)cc2)C=C1Cl [2,6-DIP, 2,6-dichloroindophenol sodium]", "µM", 116],
  ["Oc1c(Cl)c(Cl)nc(Cl)c1Cl", "µM", 1.23],
  ["O=C1C=C(Cl)C(=O)c2ccccc21", "µM", 146]
]}

[Q] Input O=C1c2ccccc2C(=O)C1c1ccccc1 , output reported IC50.
[A] 19
